Tested on: SYO-1 complex spheroid growth, percent test/control
test name: Anticancer human tumor SYO-1 cell line growth inhibition [Asc]
run parameters: second compound 3 µM; first compound 0.00316 µM; active compounds read low
Excerpt: Multicellular complex tumor spheroid response to apoptosis pathway targeting inhibitors Alrizomadlin, Pelcitoclax, and Dasminapant in combination with a variety of drugs and investigational agents in selected tumor cell lines […] Compounds. […] If the clinical Cmax for an agent had not been determined, the highest concentration tested was 10 microM. […]
# criterion met = viability, T/C below 2% (exclusive); criterion not met = viability, T/C at/above 2%

[[record]]
compound = "NC1CCC(NC2CC2c2ccccc2)CC1 (stereo unspecified) + CCN1C(C(=O)NC23CCC(C(=O)O)(CC2)CC3)C(c2cccc(Cl)c2F)C2(C(=O)Nc3cc(Cl)ccc32)C12CCCCC2"
class_name = "criterion not met"

[[record]]
compound = "CNC(C)C(=O)NC1CN(S(=O)(=O)c2cccc(S(=O)(=O)N3CCC4CCC(C(=O)NC(c5ccccc5)c5ccccc5)N4C(=O)C(NC(=O)C(C)NC)C3)c2)CCC2CCC(C(=O)NC(c3ccccc3)c3ccccc3)N2C1=O (stereo unspecified) + CCN1C(C(=O)NC23CCC(C(=O)O)(CC2)CC3)C(c2cccc(Cl)c2F)C2(C(=O)Nc3cc(Cl)ccc32)C12CCCCC2"
class_name = "criterion met"

[[record]]
compound = "COc1c(OCCCN2CCOCC2)ccc2c3n(c(=NC(=O)c4cnc(N)nc4)nc12)CCN3 + CCN1C(C(=O)NC23CCC(C(=O)O)(CC2)CC3)C(c2cccc(Cl)c2F)C2(C(=O)Nc3cc(Cl)ccc32)C12CCCCC2"
class_name = "criterion met"

[[record]]
compound = "CCN1CCN(Cc2ccc(Nc3ncc(F)c(-c4cc(F)c5nc(C)n(C(C)C)c5c4)n3)nc2)CC1 + CCN1C(C(=O)NC23CCC(C(=O)O)(CC2)CC3)C(c2cccc(Cl)c2F)C2(C(=O)Nc3cc(Cl)ccc32)C12CCCCC2"
class_name = "criterion not met"

[[record]]
compound = "O=C(c1ccc(F)c(F)c1Nc1ccc(I)cc1F)N1CC(O)([C@@H]2CCCCN2)C1 + CCN1C(C(=O)NC23CCC(C(=O)O)(CC2)CC3)C(c2cccc(Cl)c2F)C2(C(=O)Nc3cc(Cl)ccc32)C12CCCCC2"
class_name = "criterion met"


----------
System: SYO-1 complex spheroid growth, percent test/control
test name: Anticancer human tumor SYO-1 cell line growth inhibition [Asc];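 note: compound exposure lasted 7 days after spheroids grew 3 days; 100% = DMSO vehicle control viability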
run parameters: second compound 0.0949 µM; first compound 1 µM; active compounds read low
Overview of reported viability, T/C across a group of compounds:
measured endpoint: viability, T/C (%)

[[record]]
compound = "C=C(F)C(=O)N1CCN(c2nc(OCC3CCCN3C)nc3c2CCN(c2cccc4cccc(Cl)c24)C3)CC1CC#N (centres undefined) + CCN1C(C(=O)NC23CCC(C(=O)O)(CC2)CC3)C(c2cccc(Cl)c2F)C2(C(=O)Nc3cc(Cl)ccc32)C12CCCCC2"
measured_endpoint = "viability, T/C"
val = 88.2

[[record]]
compound = "O=C(c1cc(Cc2n[nH]c(=O)c3ccccc23)ccc1F)N1CCN(C(=O)C2CC2)CC1 + CCN1C(C(=O)NC23CCC(C(=O)O)(CC2)CC3)C(c2cccc(Cl)c2F)C2(C(=O)Nc3cc(Cl)ccc32)C12CCCCC2"
measured_endpoint = "viability, T/C"
val = 12.4

[[record]]
compound = "C#Cc1c(F)ccc2cc(O)cc(-c3ncc4c(N5CC6CCC(C5)N6)nc(OCC56CCCN5CC(F)C6)nc4c3F)c12 (centres undefined) + CCN1C(C(=O)NC23CCC(C(=O)O)(CC2)CC3)C(c2cccc(Cl)c2F)C2(C(=O)Nc3cc(Cl)ccc32)C12CCCCC2"
measured_endpoint = "viability, T/C"
val = 85.8

[[record]]
compound = "O=C(c1ccc(F)c(F)c1Nc1ccc(I)cc1F)N1CC(O)([C@@H]2CCCCN2)C1 + CCN1C(C(=O)NC23CCC(C(=O)O)(CC2)CC3)C(c2cccc(Cl)c2F)C2(C(=O)Nc3cc(Cl)ccc32)C12CCCCC2"
measured_endpoint = "viability, T/C"
val = 41.4


----------
Tested on: SYO-1 complex spheroid growth, percent test/control
test name: Anticancer human tumor SYO-1 cell line growth inhibition [Asc]; active = viability on the fitted dose curve at most 10% of control; inactive = the rest;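 note: compound exposure lasted 7 days after spheroids grew 3 days; 100% = DMSO vehicle control viability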
run parameters: second compound 3.16 µM; first compound 0.0316 µM
Classes used: active, inactive

[[record]]
compound = "CNC(C)C(=O)NC1CN(S(=O)(=O)c2cccc(S(=O)(=O)N3CCC4CCC(C(=O)NC(c5ccccc5)c5ccccc5)N4C(=O)C(NC(=O)C(C)NC)C3)c2)CCC2CCC(C(=O)NC(c3ccccc3)c3ccccc3)N2C1=O (stereo not drawn) + Cc1c(S(C)(=O)=O)c(-c2cc(F)cc(N3CCN(c4ccc(NS(=O)(=O)c5ccc(NC(CCN6CCC(C(=O)OCCCP(=O)(O)O)CC6)CSc6ccccc6)c(S(=O)(=O)C(F)(F)F)c5)cc4)CC3)c2)c(-c2ccc(Cl)cc2)n1C(C)C"
class_name = "inactive"

[[record]]
compound = "Cn1ncnc1[C@H]1c2n[nH]c(=O)c3cc(F)cc(c23)N[C@@H]1c1ccc(F)cc1 + Cc1c(S(C)(=O)=O)c(-c2cc(F)cc(N3CCN(c4ccc(NS(=O)(=O)c5ccc(NC(CCN6CCC(C(=O)OCCCP(=O)(O)O)CC6)CSc6ccccc6)c(S(=O)(=O)C(F)(F)F)c5)cc4)CC3)c2)c(-c2ccc(Cl)cc2)n1C(C)C"
class_name = "active"

[[record]]
compound = "C=C(F)C(=O)N1CCN(c2nc(OCC3CCCN3C)nc3c2CCN(c2cccc4cccc(Cl)c24)C3)CC1CC#N (stereo not drawn) + Cc1c(S(C)(=O)=O)c(-c2cc(F)cc(N3CCN(c4ccc(NS(=O)(=O)c5ccc(NC(CCN6CCC(C(=O)OCCCP(=O)(O)O)CC6)CSc6ccccc6)c(S(=O)(=O)C(F)(F)F)c5)cc4)CC3)c2)c(-c2ccc(Cl)cc2)n1C(C)C"
class_name = "inactive"


----------
System: SYO-1 complex spheroid growth, percent test/control
test name: Anticancer human tumor SYO-1 cell line growth inhibition [Asc];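 note: compound exposure lasted 7 days after spheroids grew 3 days; 100% = DMSO vehicle control viability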
run parameters: second compound 3.16 µM; first compound 0.0316 µM; active compounds read low
Excerpt: Multicellular complex tumor spheroid response to apoptosis pathway targeting inhibitors Alrizomadlin, Pelcitoclax, and Dasminapant in combination with a variety of drugs and investigational agents in selected tumor cell lines […] Compounds. […] If the clinical Cmax for an agent had not been determined, the highest concentration tested was 10 microM. […]
measured endpoint: viability, T/C (%)

[[record]]
molecule = "CCN1CCN(Cc2ccc(Nc3ncc(F)c(-c4cc(F)c5nc(C)n(C(C)C)c5c4)n3)nc2)CC1 + Cc1c(S(C)(=O)=O)c(-c2cc(F)cc(N3CCN(c4ccc(NS(=O)(=O)c5ccc(NC(CCN6CCC(C(=O)OCCCP(=O)(O)O)CC6)CSc6ccccc6)c(S(=O)(=O)C(F)(F)F)c5)cc4)CC3)c2)c(-c2ccc(Cl)cc2)n1C(C)C"
val = 110

[[record]]
molecule = "NC1CCC(NC2CC2c2ccccc2)CC1 (configuration not stated) + Cc1c(S(C)(=O)=O)c(-c2cc(F)cc(N3CCN(c4ccc(NS(=O)(=O)c5ccc(NC(CCN6CCC(C(=O)OCCCP(=O)(O)O)CC6)CSc6ccccc6)c(S(=O)(=O)C(F)(F)F)c5)cc4)CC3)c2)c(-c2ccc(Cl)cc2)n1C(C)C"
val = 79.8


----------
Test system: SYO-1 complex spheroid growth, percent test/control
test name: Anticancer human tumor SYO-1 cell line growth inhibition [Asc];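 note: compound exposure lasted 7 days after spheroids grew 3 days; 100% = DMSO vehicle control viability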
run parameters: second compound 0.0316 µM; first compound 0.000316 µM; active compounds read low
From the text: Multicellular complex tumor spheroid response to apoptosis pathway targeting inhibitors Alrizomadlin, Pelcitoclax, and Dasminapant in combination with a variety of drugs and investigational agents in selected tumor cell lines […] Compounds. […] If the clinical Cmax for an agent had not been determined, the highest concentration tested was 10 microM. […]
Each item that follows carries a reported viability, T/C.
measured endpoint: viability, T/C (%)

[[record]]
compound = "Cn1ncnc1[C@H]1c2n[nH]c(=O)c3cc(F)cc(c23)N[C@@H]1c1ccc(F)cc1 + CNC(C)C(=O)NC1CN(S(=O)(=O)c2cccc(S(=O)(=O)N3CCC4CCC(C(=O)NC(c5ccccc5)c5ccccc5)N4C(=O)C(NC(=O)C(C)NC)C3)c2)CCC2CCC(C(=O)NC(c3ccccc3)c3ccccc3)N2C1=O"
val = 101

[[record]]
compound = "Cn1ncnc1[C@H]1c2n[nH]c(=O)c3cc(F)cc(c23)N[C@@H]1c1ccc(F)cc1 + Cc1c(S(C)(=O)=O)c(-c2cc(F)cc(N3CCN(c4ccc(NS(=O)(=O)c5ccc(NC(CCN6CCC(C(=O)OCCCP(=O)(O)O)CC6)CSc6ccccc6)c(S(=O)(=O)C(F)(F)F)c5)cc4)CC3)c2)c(-c2ccc(Cl)cc2)n1C(C)C"
val = 108

[[record]]
compound = "NC1CCC(NC2CC2c2ccccc2)CC1 (centres undefined) + CNC(C)C(=O)NC1CN(S(=O)(=O)c2cccc(S(=O)(=O)N3CCC4CCC(C(=O)NC(c5ccccc5)c5ccccc5)N4C(=O)C(NC(=O)C(C)NC)C3)c2)CCC2CCC(C(=O)NC(c3ccccc3)c3ccccc3)N2C1=O"
val = 106

[[record]]
compound = "NC1CCC(NC2CC2c2ccccc2)CC1 (centres undefined) + Cc1c(S(C)(=O)=O)c(-c2cc(F)cc(N3CCN(c4ccc(NS(=O)(=O)c5ccc(NC(CCN6CCC(C(=O)OCCCP(=O)(O)O)CC6)CSc6ccccc6)c(S(=O)(=O)C(F)(F)F)c5)cc4)CC3)c2)c(-c2ccc(Cl)cc2)n1C(C)C"
val = 100

